Where these numbers come from: the supplement of paper PMC9732359

experiment: protein stability index of a GFP-peptide fusion (yeast GPS) (PSI 1-4); higher = more stable; sorted into four equal gates, so the index is relative within each strain; settings: pdr5∆
metric: protein stability index
Please respond with just the number, no unit label.

**Query** Supply measured protein stability index of TKAVEFSMGHIRSSSVS [MED4] in your reply.
**Result** 3.38

**Query** Supply measured protein stability index of INKEIFHHWLVEFINKM [SRB8] in your reply.
**Result** 1.76

**Query** Supply measured protein stability index of SQASSDLGETFRGIIRS [CSL4] in your reply.
**Result** 2.96

**Query** Supply measured protein stability index of DQVLNLCLTEFENCYLE [FAS1] in your reply.
**Result** 3.2

**Query** Supply measured protein stability index of AQYFYSGAYSYPDFRHY [DIS3] in your reply.
**Result** 1.43

**Query** Supply measured protein stability index of DIGKGAETTFLQDVIAL [RPC53] in your reply.
**Result** 2.31

**Query** Supply measured protein stability index of TEKLSNGFSFTKFNHNK [YOR098C/NUP1] in your reply.
**Result** 3.14

**Query** Supply measured protein stability index of LDISVFLLEKAGERKIP [TAF14] in your reply.
**Result** 2.43

**Query** Supply measured protein stability index of YGIVAMAATATDKIGRS [FAS2] in your reply.
**Result** 1.82

**Query** Supply measured protein stability index of SAKEIAKASGCDDESGD [MCD1] in your reply.
**Result** 1.8

**Query** Supply measured protein stability index of RSPTRRLELLQLSPVKN [SMC4] in your reply.
**Result** 1.64

**Query** Supply measured protein stability index of LGNIASSFYINHASMDV [BRR2] in your reply.
**Result** 2.67

**Query** Supply measured protein stability index of PWVVYLQILAMLLLNIF [YMR129W/POM152] in your reply.
**Result** 1.96

**Query** Supply measured protein stability index of LNESRSQHKKILEELDF [SMC3] in your reply.
**Result** 3.26

**Query** Supply measured protein stability index of NGGDKELEMIGGTNEDD [YCS4] in your reply.
**Result** 2.79

**Query** Supply measured protein stability index of SHINTNVGDNNSTASSS [ARP7] in your reply.
**Result** 3.02

**Query** Supply measured protein stability index of LKISGEEESLHVFQYAN [RPC37] in your reply.
**Result** 2.21

**Query** Supply measured protein stability index of VRIPPDQFHRDTISAIT [RPC25] in your reply.
**Result** 2.43

**Query** Supply measured protein stability index of HNGRDKIQFHIHFADVA [RGR1] in your reply.
**Result** 1.79

**Query** Supply measured protein stability index of NPLMYSGGNNTATIINN [PCI8] in your reply.
**Result** 2.9

**Query** Supply measured protein stability index of MSFIFPSYAERQSSDES [YML031W/NDC1] in your reply.
**Result** 2.04

**Query** Supply measured protein stability index of DPEEVEQQVAEEATTEE [RPS0A] in your reply.
**Result** 3.33

**Query** Supply measured protein stability index of SELDSNDFFIIYYTPAF [YJL039C/NUP192] in your reply.
**Result** 1.51

====

Kindly supply the reported protein stability index values for the records listed here.
assay: protein stability index of a GFP-peptide fusion (yeast GPS) (PSI 1-4); higher = more stable; sorted into four equal gates, so the index is relative within each strain; details: pdr5∆
Please respond with just the number, no unit label.

**Query** Supply measured protein stability index of NAIRIGELFLNESWKSS [SRP72] in your reply.
**Result** 3.21

**Query** Supply measured protein stability index of LEMLKPCVEDGFVIQDR [RPB2] in your reply.
**Result** 3.29

**Query** Supply measured protein stability index of VSTSSGAAANNNDQKRQ [YJL041W/NSP1] in your reply.
**Result** 3.17

**Query** Supply measured protein stability index of DILLRLCVLWDDLQSSV [YCG1] in your reply.
**Result** 1.4

**Query** Supply measured protein stability index of VIVELLPQSEWKAPSSI [DIS3] in your reply.
**Result** 2.57

**Query** Supply measured protein stability index of GEHISAIVPGQSISGTL [SWP82] in your reply.
**Result** 3.05

**Query** Supply measured protein stability index of MGAINNNIPSLTSFAEE [SNF6] in your reply.
**Result** 3.43

**Query** Supply measured protein stability index of NTNLMNGVNVQIDQLNR [GRR1] in your reply.
**Result** 3.06

**Query** Supply measured protein stability index of ATPSAKEASQEDDNNNV [YLR335W/NUP2] in your reply.
**Result** 2.62

**Query** Supply measured protein stability index of IITSGRDTREVLEERER [ARP9] in your reply.
**Result** 3.36

**Query** Supply measured protein stability index of SGRTVISPDPNLSIDEV [RPO31] in your reply.
**Result** 1.97

**Query** Supply measured protein stability index of RNSPFWWTNSHHDGKLW [PRP8] in your reply.
**Result** 2.85

**Query** Supply measured protein stability index of EAAFRNIKTIAETLAEE [RPS5] in your reply.
**Result** 3.28

**Query** Supply measured protein stability index of VLKFLTDLEKKHLWDQK [RPC17] in your reply.
**Result** 3.41

**Query** Supply measured protein stability index of NYEDVGRFLRVPKEGLF [BRR2] in your reply.
**Result** 3.5

**Query** Supply measured protein stability index of ERGHPKDNARIYQVPEK [POP1] in your reply.
**Result** 3.02

**Query** Supply measured protein stability index of MEDKISEFLNVPFESLQ [YIL149C/MLP2] in your reply.
**Result** 3.35

**Query** Supply measured protein stability index of NDIKLFVDDTNVYRVTV [PRP8] in your reply.
**Result** 2.63

**Query** Supply measured protein stability index of SYKDSGLWGFSTATRNV [COR1] in your reply.
**Result** 3.11

**Query** Supply measured protein stability index of ILDLKEFDRRILKKSLM [RTT102] in your reply.
**Result** 3.47

**Query** Supply measured protein stability index of DVSLLLQRDLFIRLPHW [RGR1] in your reply.
**Result** 2.51

**Query** Supply measured protein stability index of LVSSASQQLLEILVTEL [RPN2] in your reply.
**Result** 2.27

**Query** Supply measured protein stability index of TTARAKARAKKTKKEKG [RPN2] in your reply.
**Result** 3.63

**Query** Supply measured protein stability index of SFLKVDPDLGLDLMFDE [YJL039C/NUP192] in your reply.
**Result** 3.3

====

test: protein stability index of a GFP-peptide fusion (yeast GPS) (PSI 1-4); higher = more stable; sorted into four equal gates, so the index is relative within each strain; conditions: pdr5∆
Kindly supply the reported protein stability index values for the records listed here.
Please respond with just the number, no unit label.

**Query** Supply measured protein stability index of LNSFAFELCSLGDKELW [YJR042W/NUP85] in your reply.
**Result** 1.32

**Query** Supply measured protein stability index of RKVENIRTILVNIHHLL [MED7] in your reply.
**Result** 1.74

**Query** Supply measured protein stability index of EHNPSAHTASVGVVFGS [COR1] in your reply.
**Result** 3.24

**Query** Supply measured protein stability index of IDMGEDKENVPVEKVKE [DPB4] in your reply.
**Result** 3.45

====

test: protein stability index of a GFP-peptide fusion (yeast GPS) (PSI 1-4); higher = more stable; sorted into four equal gates, so the index is relative within each strain; details: san1∆
Lab note: anything with protein stability index at or over 3 counts as Satisfied; the rest go in Not satisfied.

**Query** Reported protein stability index at or above 3? SIVLLLLSQFGIKVLPE [YML103C/NUP188]
**Result** Not satisfied

**Query** Reported protein stability index at or above 3? SNEDVMMTGAEQDPYSN [RPB3]
**Result** Satisfied

**Query** Reported protein stability index at or above 3? QNEMIDAIAVTKGHGFE [RPL3]
**Result** Satisfied

**Query** Reported protein stability index at or above 3? SAKEIAKASGCDDESGD [MCD1]
**Result** Not satisfied

**Query** Reported protein stability index at or above 3? NGVVIATEKKSSSPLAM [PRE8]
**Result** Not satisfied

**Query** Reported protein stability index at or above 3? DRFKPNLDIAKDLIRTD [MED4]
**Result** Not satisfied

**Query** Reported protein stability index at or above 3? SVFNAELLKLLNDEYNY [YCS4]
**Result** Not satisfied

**Query** Reported protein stability index at or above 3? SFSVCKIRCFRYISTLT [IRR1]
**Result** Not satisfied

**Query** Reported protein stability index at or above 3? TNDGIERYSDKYLKKRK [RPC31]
**Result** Satisfied

**Query** Reported protein stability index at or above 3? MYQMITMGGNAELELVD [SMC4]
**Result** Not satisfied

**Query** Reported protein stability index at or above 3? MSNVVQARDNSQVFGVA [RPS14A]
**Result** Not satisfied

**Query** Reported protein stability index at or above 3? DSETSDPNEVEIKKLLA [DIS3]
**Result** Not satisfied

**Query** Reported protein stability index at or above 3? DCLSFAPTLSQTYINQE [SSN2]
**Result** Not satisfied

**Query** Reported protein stability index at or above 3? SKWFNLEKIHSIEVQSL [SWI3]
**Result** Not satisfied
